Values compiled from a melting point compilation (Tetko et al.; mined from patent text by program, amines drawn as free bases though some values may be those of a salt).

I'd appreciate it if you could supply melting point values for the items below.

Record excerpt, results attached:
[[record]]
compound = "CC(C)Cn1c(C(F)(F)F)nc2ccc(-n3c(=O)cc(C(F)(F)F)n(C)c3=O)cc21"
measurementname = "melting point"
val = "156 to 159 °C"

[[record]]
compound = "COc1ccc([C@@H]2CC(=O)N3C(=O)CC[C@H]23)cc1 (relative stereo)"
measurementname = "melting point"
val = "125 to 127 °C"

[[record]]
compound = "Cc1c(N)ccc2[nH]cc(CCCO)c12"
measurementname = "melting point"
val = "141 to 142 °C"

[[record]]
compound = "N#CCc1cc(Cl)cc(Cc2nc3c(F)c(F)cc(F)c3s2)c1"
measurementname = "melting point"
val = "114 to 117 °C"

[[record]]
compound = "Cc1ccc(CO)cc1NC(=O)c1cccc([N+](=O)[O-])c1"
measurementname = "melting point"
val = "198 to 200 °C"


Please report melting point for every entry that follows.
1. CC(C)n1cc(C(=O)NCc2ccc(Cl)cc2)c(=O)c2cc(C#CCO)sc21
2. CNS(=O)(=O)c1ccc(Nc2nc(N)c(C(=O)c3sccc3C)s2)cc1
3. N=C(N)c1ccc(NC(=O)NC(=O)c2ccc(OCC(=O)O)cc2)cc1
4. CN(Cc1ccccc1)C(=O)c1ccc2nonc2c1
5. CCOC(=O)CN1CC(OC)=CC1=O

1. 190 to 196 °C
2. 197 to 200 °C
3. 285 to 288 °C
4. 105 to 106 °C
5. 54 to 56 °C

Please report melting point for every entry that follows.
1. CC(CN1CCCC1)N1c2ccccc2Sc2ccc(C(N)=S)cc21 (racemic)
2. Cc1nc[nH]c1CSCCN=C(NC#N)NCCCCCCCCN
3. COCCc1ccc(OCC(O)CN2CCC(N3CCCNC3=O)CC2)cc1 (stereo unspecified)
4. Cc1nc(C#N)ccc1OC1SCC(O)C(O)C1O (stereo unspecified)
5. Cc1cc(OCCCC#Cc2ccc(OC(F)(F)F)cc2)ccc1OCC(=O)O
6. OC(/C=C/c1cc(C(F)(F)F)ccc1Cl)(CF)CF
7. O=C(/C=C/c1cccc(Cl)c1)NC1CC1

1: 150 °C; 2: 122 to 124 °C; 3: 113 to 115 °C; 4: 193 to 195 °C; 5: 125 to 127 °C; 6: 61 to 62 °C; 7: 112 to 113 °C

Please report melting point for every entry that follows.
1. CON(Cc1ccc(F)cc1)C(=O)c1nc2n(c(=O)c1OCc1ccccc1)CCOC2(C)C
2. CCCSc1ccc(N)c([N+](=O)[O-])c1
3. Cc1ccnc(N2CCN(CCc3c(C)n4c5c(cc(O)cc35)CCC4)CC2)c1
4. CC1=C(C(=O)OC(C)(C)C)C(c2cc(Br)ccc2F)C(C(=O)OC(C)(C)C)=C(C)N1
5. CC(C)(C)OC(=O)Nc1ccc(C#Cc2ccccc2)cc1N
6. O=[N+]([O-])c1cc(F)c(NS(=O)(=O)c2ccccc2)cc1F
7. CCCCCc1ccc(-c2ccc(C(C)O)cc2)cc1 (single isomer, unassigned; (-))

141 °C
36.5 to 38 °C
110 °C
173 to 174 °C
177 to 178 °C
176 °C
83.8 °C

* * *

I'd appreciate it if you could supply melting point values for the items below.

[[record]]
molecule = "c1ccc(Nc2nc3c(s2)CCc2[nH]ncc2-3)nc1"
val = "297 to 299 °C"

[[record]]
molecule = "N=C(N)c1c[nH]c2ccc(CCNC(=O)c3ccc(-c4ccnc(N5CCCC5C(N)=O)n4)cc3)cc12 (stereo unspecified)"
val = "139 to 141 °C"

[[record]]
molecule = "CS(=O)(=O)c1ccc(-c2oc(CC(=O)O)nc2-c2ccc(F)cc2)cc1"
val = "118 to 120 °C"

[[record]]
molecule = "COC(=O)c1cc(Cl)ncc1[N+](=O)[O-]"
val = "60.5 to 64.1 °C"

[[record]]
molecule = "COC(=O)c1ccc(=O)n(CCNC(=O)c2ccc(C)nc2)c1"
val = "184 to 185 °C"

[[record]]
molecule = "CC(=O)c1cccnc1CN1C(=O)C(NC(=O)Nc2cccc(C)c2)N=C(c2ccccc2F)c2ccccc21 (racemic)"
val = "218 to 222 °C"


Please report melting point for every entry that follows.
1. CNC(=C[N+](=O)[O-])NCCSCc1ncccc1OC
2. Cc1cccc(-c2coc3c(O)c(O)ccc3c2=O)c1
3. O=C1CC(=O)C(CCCCCCCO)C1=O (stereo unspecified)
4. CNCc1ccc(-c2ccc(OC)c(Br)c2)cc1
5. Nc1nnc(-c2ccc3ncn(-c4ccc(OC(F)(F)F)c(Cl)c4)c3c2)o1

146 to 147 °C
268 °C
121 to 124 °C
65 to 68 °C
238 to 239 °C

* * *

I'd appreciate it if you could supply melting point values for the items below.

[[record]]
molecule = "Oc1ccc(-c2c3ccccc3c(Cl)c3sc4ccccc4c23)cc1"
val = "193 to 195 °C"

[[record]]
molecule = "NCCOc1ccc2[nH]c3ccccc3c2c1"
val = "145 to 146 °C"

[[record]]
molecule = "CC(C)CC(=O)C(=O)OCc1ccccc1"
val = "98 to 100 °C"


Please report melting point for every entry that follows.
1. O=C(CCCCCOc1ccccc1)c1ccccc1
2. Cn1c(=O)oc2cc3c(cc21)OCC31C(=O)N(C(c2ccccc2)c2ccccc2)c2ccccc21 (configuration not stated)
3. COc1cc(OC)nc(NC#N)n1
4. N#Cc1cc(N(CC(=O)O)C(=O)c2cccn2-c2ccc(F)cc2)ccc1N1CCCCC1
5. c1ccc(OCCSCc2nnc(-c3ccc(OCCN4CCCCC4)cc3)o2)cc1

1: 53.5 to 54.5 °C; 2: 228 to 229 °C; 3: 202 °C; 4: 117 to 120 °C; 5: 70 °C

* * *

measurementName: melting point

Record excerpt, results attached:
[[record]]
molecule = "C#CCOC(=O)c1ccc(SC(C)CCCC(C)C)cc1 (stereo unspecified)"
val = "130 to 131 °C"

[[record]]
molecule = "O=C1CN(N=Cc2ncc(-c3ccc(F)cc3)o2)C(=O)N1"
val = "281 to 282 °C"

[[record]]
molecule = "CCn1ncc2c3noc(C)c3cnc21"
val = "181 to 182 °C"

[[record]]
molecule = "Cc1c(-c2ccccc2)sc2nc(NCCNC(=O)CCN3CCN(C)CC3)[nH]c(=O)c12"
val = "235 to 245 °C"

[[record]]
molecule = "N#Cc1cnc2cc(-c3ccc(C=O)cc3)sc2c1Cl"
val = "300 to 305 °C"

[[record]]
molecule = "CC1(C)CC(=O)c2c(Nc3ccccn3)cn(-c3ccccn3)c2C1"
val = "180 to 183 °C"

[[record]]
molecule = "CS(=O)(=O)c1ccc(-c2cnn(Cc3ccc(O)cc3)c(=O)c2-c2ccc(F)cc2)cc1"
val = "225 to 226 °C"

[[record]]
molecule = "IC(I)=C(I)Cn1ncnn1"
val = "92 to 93 °C"


Please report melting point for every entry that follows.
1. CCOC(=O)c1ccc(OC(F)F)cc1SC
2. CC1(C)OC(=S)Nc2ccc(-c3cc(F)cc(Br)c3)cc21

["83 to 85 °C", "221 to 222 °C"]

Find the recorded melting point belonging to "NC1=NCc2c[nH]c3cccc1c23" and report it. 233 to 235 °C

* * *

measurementName: melting point

Record excerpt, results attached:
[[record]]
compound = "CCc1ccc([N+]([O-])=Cc2ccc(C)cc2)cc1"
val = "97 to 99 °C"

[[record]]
compound = "CCCOc1nsnc1S(C)(=O)=O"
val = "30 to 31 °C"

[[record]]
compound = "CC(C)OC(=O)C(Cl)(Cl)P(=O)(OC(C)C)c1ccccc1 (stereo not given)"
val = "42 to 44 °C"

[[record]]
compound = "Cc1ccc(-c2ccc(S(C)(=O)=O)cc2)n1-c1ccc(-c2ccsc2)cc1"
val = "187 to 188 °C"

[[record]]
compound = "CCOC(=O)CC(=O)C=Cc1ccc(OC)cc1"
val = "69 °C"


Please report melting point for every entry that follows.
1. CNCC(CNC(C)=O)c1cccc2ccc(OC)cc12 (stereo not given)
2. COC(=O)c1scc(-c2ccccc2)c1S(=O)(=O)NC(=O)Nc1nc(OC)cc(OC)n1

["126 to 128 °C", "225 to 227 °C"]

Please report melting point for every entry that follows.
1. CC(C)(C)c1cc(CC(O)=S)cc(C(C)(C)C)c1O
2. Cc1cc(Nc2ccnc(Nc3ccc(S(=O)(=O)N4CCC(O)(CN(C)C)CC4)cc3)n2)ccc1F

1: 130 °C; 2: 233 °C

Find the recorded melting point belonging to "COc1ccc(CNC(=O)[C@@H](NC(=O)[C@H](NCc2ccc(N(C)C)cc2)[C@H](O)[C@H](Cc2ccccc2)NC(=O)OC(C)(C)C)C(C)C)c(O)c1" and report it. 89 to 91 °C
